Known pKd of a selection of binders
- Target system: T1, hGITR.mmh (human)
- T1 construct: soluble monomeric construct; also called human (h) GITR.mmh; monomeric human GITR
- T1 chain: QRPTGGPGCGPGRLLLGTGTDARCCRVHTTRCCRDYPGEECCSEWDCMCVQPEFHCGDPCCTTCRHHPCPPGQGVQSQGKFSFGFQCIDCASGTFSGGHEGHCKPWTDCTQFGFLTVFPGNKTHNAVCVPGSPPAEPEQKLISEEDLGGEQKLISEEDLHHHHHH
- Method: SPR 37C, mAb capture
pKd: −log10 of the molar value.

Binder	pKd
H1H14523P (antibody, human IgG1, V domains shown, human IgG1 (H1H)) VH: QVQLVESGGGVVQPGRSLRLSCEASGFTFSSYGMHWVRQAPGKGLEWVAVIWYSESNKYYTDSMKGRLTISRDNSKNTLYLQMNSLRAEDTAVYYCARGGLLGKYYYYGMDVWGQGTTVTVSS VL: DIQMTQSPSSLSASVGDRVIITCRASQDIRNDLGWYQQKPGKAPKRLIYAASSLQSGVPSRFSGSGSGTEFTLTISSLQPEDFATFYCLQLNSYPYTFGQGTKLEIK	8.06
H4H14475P (antibody, human IgG4, V domains shown, human IgG4 (H4H)) VH: QVQLVESGGGVVQPGRSLRLSCAASGTIFSTHGMHWVRQAPGKGLEWVAVISYDGNKKYYAGSVKGRFTISRDNSKNTLYLQMNDVRSEDTAVYHCTTDITGITDYWGQGTLVTVSS VL: DIQMTQSPSSLSASVGDRVTITCRASQGIGNDLGWYQQKLGKAPKRLIYAASSLESGVPSRFSGSGSGTEFILTISSLQAEDFATYYCLQHNGFPTFGQGTKVEIK	7.34
H4H14508P (antibody, human IgG4, V domains shown, human IgG4 (H4H)) VH: QVQLVESGGGVVQPGRSLRLSCAASGLTVSSYVMHWVRQAPGKGLEWVAIIWYDGSNKYYGDSVKGRFTISRDNSKKTLYLQMNSLRAEDTAVYYCARGRPLSSSSSDYYGLDVWGQGTTVTVSS VL: AIQMTQSPSSLSASVGDRVTIICRASQGIRNDLGWYQQKPGKAPNLLIYAASSLQSGVPSRFSGSGSGTDFTLTISSLQPEDFATYYCLQDYNYPWTFGQGTKVEIK	7.44
H4H14470P (antibody, human IgG4, V domains shown, human IgG4 (H4H)) VH: QVQLVESGGGVVQPGRSLRLSCAASGFTVRNYGMHWVRQAPGKGLEWVAVIWYDGSNKYYADSVKGRFTISRDNSKNTLFLQMNSLRAEDTAVYYCARGGELVRGDYYYGMDVWGQGTTVTVSS VL: DIQMTQSPSSLSASVGDRVTITCRASQGIRNDLGWYQQKPGKAPKRLIYGASSLQSGVPSRFSGSGSGTEFTLTISSLQPEDFATYYCLQHNSYPYTFGQGTKLEIK	7.19
H1H14520P (antibody, human IgG1, V domains shown, human IgG1 (H1H)) VH: QVQLVESGGGVVQPGRSLRLSCAASGFTFSSFGMHWVRQAPGKGLEWVAVISYDGRNRYYADSVKGRFTISRDNSKNTLYLQMNSLSAEDTAMFYCAKDGFGNSFDYWGQGTLVTVSS VL: DVVMTQSPLSLPVTLGQPASISCRSSQSLLYSDGNTYLTWFQQRPGQSPRRLIYKVSNRDSGVPDRFSGSGSGTDFTLTISRVEAEDVGIYYCMQGTHWPWTFGQGTKVEIK	7.20
H4H14469P (antibody, human IgG4, V domains shown, human IgG4 (H4H)) VH: QVQLVESGGGVVQPGGSLRLSCAVSGFTFSDYGMHWVRQVPGAGLEWVAVIYYEGSNKYYADSVKGRFTISRDNSKNTLYLQMNSLRVEDTSMYFCARGPLLGGNFYSYLMDVWGQGTTVTVSS VL: AIQMTQSPSSLSASVGDRVTITCRASQGIRNGLGWYQQKPGKAPKLLIYTASSLQSGVPSRFSGSGSGTDFTLTISSLQPEDFATYYCLQDYNYPFSFGPGTKVDIK	7.37
H1H14486P (antibody, human IgG1, V domains shown, human IgG1 (H1H)) VH: QVQLVESGGGVVQPGRSLRLSCAASGFTFSNYGMHWVRQAPGKGLEWVAVIWYPGSNKFYTDSVEGRFTISRDNSKNTVYLQMDSLRAEDTAVYYCARGGALGVDYYYGMDVWGQGTTVTVSS VL: AIQMTQSPSSLSASVGDRVTLTCRASQGIRNDLGWYQQKPGKAPNFLIYSASSLQSGVPSRFSGSGSGTDFTLTISSLQPEDFATYYCLQNYNYPWTFGQGTKVEIK	8.55
H4H14516P (antibody, human IgG4, V domains shown, human IgG4 (H4H)) VH: EVQLVESGGGLVQPGGSLRLSCAASGFTFSNYEMYWVRQAPGKGLEWVSYISSSGTTIYYADSVKGRFSVSRENARSSLYLQMNSLRVEDSAVYFCAKYNWNSFYGLDVWGQGTTVTVSS VL: AIQMTQSPSSLSASVGDRVTITCRASQDIRNDLGWYQQKPGKAPKLLISAASSLQGGVPSRFSGSGSGTDFTLTISSLQPADFATYYCLQEYNYALTFGGGTKVEIK	7.49
H4H14476P (antibody, human IgG4, V domains shown, human IgG4 (H4H)) VH: QVQLVESGGGVVQPGRSLRLSCAASGFTFSNYGIHWVRQPPGQGLEWVAVIWYAGSNKFYADSVKGRFTISRDNSKNSAYLQMNSLRAEDTAVYYCARAPLGYYYYGMDVWGQGTTVTVSS VL: DIQMTQSPSSLSASVGDRVTITCRASQGIRNDLGWYQQKPGKAPKRLIYDASSLESGVPSRFSGSGSGTEFTLTISSLQPEDFATYYCLQHNSYPWTFGQGTKVEIK	7.50
